TARGET: Rab7 GTPase wild-type (dog), GST fusion
MEASUREMENT_PROTOCOL: analogs blocking nucleotide binding to wildtype Rab7 – biochemical, oxadiazole analogs, multiplex bead flow cytometry, SAR follow-up (AID 2031)
SETUP_CONDITIONS: bead-based flow cytometry, Bodipy-FL-GTP binding; Ki calculated from EC50
pKi: −log10 of the molar value.
QUANTITY_MEASURED: pKi

Worked examples follow.
>  <CHEM_SMILES>
Cc1ccc(C)c(N2CCN(C(=O)CCc3nc(-c4ccc(Cl)cc4)no3)CC2)c1

>  <QUANTITY_MEASURED>
pKi

>  <RECORDED_RESULT>
6.72

$$$$
>  <CHEM_SMILES>
COc1cccc(-c2noc(CCC(=O)N3CCN(c4cc(C)ccc4C)CC3)n2)c1

>  <QUANTITY_MEASURED>
pKi

>  <RECORDED_RESULT>
6.66

$$$$
>  <CHEM_SMILES>
COc1ccc(-c2noc(CCC(=O)N3CCN(c4cccc(C)c4C)CC3)n2)cc1

>  <QUANTITY_MEASURED>
pKi

>  <RECORDED_RESULT>
7.00

$$$$
>  <CHEM_SMILES>
Cc1ccc(C)c(N2CCN(C(=O)CCc3nc(-c4ccccc4C)no3)CC2)c1

>  <QUANTITY_MEASURED>
pKi

>  <RECORDED_RESULT>
6.44

$$$$
>  <CHEM_SMILES>
COc1ccc(-c2noc(CCC(=O)N3CCN(c4ccccc4Cl)CC3)n2)cc1

>  <QUANTITY_MEASURED>
pKi

>  <RECORDED_RESULT>
6.82

$$$$
>  <CHEM_SMILES>
Cc1ccc(C)c(N2CCN(C(=O)CCc3nc(-c4ccccc4)no3)CC2)c1

>  <QUANTITY_MEASURED>
pKi

>  <RECORDED_RESULT>
7.10

$$$$

P. Cc1ccc(C)c(N2CCN(C(=O)CCc3nc(-c4cccc(F)c4)no3)CC2)c1
Q. Cc1ccc(C)c(N2CCN(C(=O)CCc3nc(-c4ccccc4Br)no3)CC2)c1
R. COc1ccc(-c2noc(CCC(=O)N3CCN(c4ccccc4C(F)(F)F)CC3)n2)cc1
S. COc1ccc(-c2noc(CCC(=O)N3CCN(c4ccccc4F)CC3)n2)cc1
Sequence the entries by pKi, beginning with the highest number. Answer format: the labels, in the requested order.
S, R, Q, P
(S: 7.40, R: 6.89, Q: 6.57, P: 6.29)
